B1: Pituitary-specific positive transcription factor 1, residues 130 to 198; numbered along this chain, P28069 (parent)
chain: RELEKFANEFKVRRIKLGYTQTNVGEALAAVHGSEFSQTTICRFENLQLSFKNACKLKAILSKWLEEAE

variants of: B1; experiment: abundance fitness (aPCA) (normalised: wild type 0, dead -1); higher = more abundant; growth selection in yeast, the domain comes from the species named; conditions: Homo sapiens
Rule: abundance fitness under -0.4 gives no, otherwise yes.

> print(dat)
   mutation.label  class.name
1            C42A         yes
2            A59S         yes
3            L28G          no
4            R14L          no
5            R13T          no

Could you verify whether the entry V12C shows abundance fitness of no less than -0.4?
yes

Could you verify whether the entry A7I shows abundance fitness of no less than -0.4?
yes

Could you verify whether the entry A27W shows abundance fitness of no less than -0.4?
yes

Could you verify whether the entry E45M shows abundance fitness of no less than -0.4?
no

Could you verify whether the entry Q21F shows abundance fitness of no less than -0.4?
no

Could you verify whether the entry L57C shows abundance fitness of no less than -0.4?
yes

Could you verify whether the entry R43G shows abundance fitness of no less than -0.4?
yes

Could you verify whether the entry Q21S shows abundance fitness of no less than -0.4?
no

Could you verify whether the entry S50T shows abundance fitness of no less than -0.4?
yes

Could you verify whether the entry V24L shows abundance fitness of no less than -0.4?
yes

Could you verify whether the entry G33L shows abundance fitness of no less than -0.4?
no
